The measurements presented in this section are drawn from ChEMBL document CHEMBL1152798.

Assay: Antiglycation activity of compound assessed as inhibition of BSA-derived advance glycated end product formation after 7 days by spectrofluorimeter
Format: physicochemical
Conditions: read-out: IC50
pIC50: −log10 of the molar value.
measured_property: pIC50

// worked examples, pIC50 included
COc1cccc(NC(=O)Nc2ccccc2)c1 | 3.64
O=C(Nc1ccccc1)Nc1ccc(Br)cc1 | 5.21
COc1cccc(NC(=O)Nc2cccc(Cl)c2)c1 | 5.24
Cc1cc(C)cc(NC(=O)Nc2cccc(Cl)c2)c1 | 3.04
O=C(Nc1ccccc1)Nc1ccccc1Br | 3.92

P. O=C(Nc1cccc(Cl)c1)Nc1ccccc1Br
Q. O=C(Nc1ccccc1)Nc1ccc(Cl)c(Cl)c1
Task: # compare pIC50 for P vs Q ; return the one with the smaller value Provide the label of your selected option as the answer.
Result: Q

====

Assay: Antiglycation activity of compound assessed as inhibition of BSA-derived advance glycated end product formation after 7 days by spectrofluorimeter
Format: physicochemical
Conditions: read-out: IC50
pIC50: −log10 of the molar value.
measured_property: pIC50

// worked examples, pIC50 included
C[C@@H]1O[C@@H](OC[C@H]2O[C@@H](Oc3c(-c4ccc(O)c(O)c4)oc4cc(O)cc(O)c4c3=O)[C@H](O)[C@@H](O)[C@@H]2O)[C@H](O)[C@H](O)[C@H]1O [RUTIN] | 4.38
O=C(Nc1ccccc1)Nc1cccc([N+](=O)[O-])c1 | 5.14
COc1ccc([N+](=O)[O-])cc1NC(=O)Nc1ccccc1 | 3.79
COc1ccccc1NC(=O)Nc1cccc(Cl)c1 | 5.15
O=C(Nc1cccc(Cl)c1)Nc1cccc(Br)c1 | 5.09

P. COc1ccc(NC(=O)Nc2ccccc2)cc1
Q. COc1ccc([N+](=O)[O-])cc1NC(=O)Nc1cccc(Cl)c1
Task: # compare pIC50 for P vs Q ; return the one with the smaller value Provide the label of your selected option as the answer.
Result: Q
(Q: 3.39, P: 5.08)

====

Assay: Antiglycation activity of compound assessed as inhibition of BSA-derived advance glycated end product formation after 7 days by spectrofluorimeter
Assay type: physicochemical
Conditions: read-out: IC50
measured_property: IC50 (µM)

// worked examples, IC50 included
O=C(Nc1cccc(Cl)c1)Nc1ccc(Cl)c(Cl)c1 | 15.2
COc1ccc(NC(=O)Nc2cccc(Cl)c2)cc1 | 7.14
Cc1ccc(NC(=O)Nc2ccccc2)cc1C | 9

P. O=C(Nc1ccc(Br)cc1)Nc1cccc(Cl)c1
Q. O=C(Nc1ccccc1)Nc1cccc(Br)c1
Task: # compare IC50 for P vs Q ; return the one with the smaller value Provide the label of your selected option as the answer.
Result: Q
